FYI, the data here is from patent US10787447B2.

target-or-test-system: human muscarinic M4 receptor (Homo sapiens)
Sequence (P08173 1-479): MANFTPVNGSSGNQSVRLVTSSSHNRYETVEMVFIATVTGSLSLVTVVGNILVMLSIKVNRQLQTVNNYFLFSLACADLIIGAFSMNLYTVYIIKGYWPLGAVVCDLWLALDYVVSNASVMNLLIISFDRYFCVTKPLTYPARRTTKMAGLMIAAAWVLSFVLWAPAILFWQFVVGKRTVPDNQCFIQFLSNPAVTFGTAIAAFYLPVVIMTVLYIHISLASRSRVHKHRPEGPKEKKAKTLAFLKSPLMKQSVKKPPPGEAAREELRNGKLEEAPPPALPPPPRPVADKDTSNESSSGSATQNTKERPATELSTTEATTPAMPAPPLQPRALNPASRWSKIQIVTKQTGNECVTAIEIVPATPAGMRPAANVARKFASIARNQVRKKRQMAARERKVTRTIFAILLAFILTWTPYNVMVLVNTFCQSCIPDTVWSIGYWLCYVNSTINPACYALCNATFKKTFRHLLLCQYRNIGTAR
protocol-description: Alphascreen Surefire phospho-ERK1/2 functional assay, M4
Assay type: cell-based
assay-context: CHO cells stably expressing human M4; phospho-ERK1/2; read-out: pEC50 M4 (converted)
assay-endpoint: EC50 (nM)

molecule	value-observed
CCOC(=O)N1C2COCC1CC(N1CCC(N(CC(C)(C)C)C(C)=O)CC1)C2 (single isomer, unassigned) [Example 6-2 Isomer 1]	1050
CCOC(=O)N1C2COCC1CC(N1CCC(C#N)(c3ccccn3)CC1)C2 (single isomer, unassigned) [Example 3-1 Isomer 1]	129
CCOC(=O)N1C2COCC1CC(N1CCC(C(=O)NC3(C)CCC3)CC1)C2 (single isomer, unassigned) [Example 7-1 Isomer 1]	324
CCOC(=O)N1C2COCC1CC(N1CCC3(CC1)CNC(=O)O3)C2 (single isomer, unassigned) [Example 5-3 Isomer 1]	832
CCOC(=O)N1C2COCC1CC(N1CCC(C#N)(c3ccccn3)CC1)C2 (single isomer, unassigned) [Example 3-1 Isomer 2]	309

---

The compounds listed here are annotated with their % Emax cf. ACh, M1.
target-or-test-system: human muscarinic M1 receptor (Homo sapiens, UniProt P11229)
Sequence (P11229 whole entry): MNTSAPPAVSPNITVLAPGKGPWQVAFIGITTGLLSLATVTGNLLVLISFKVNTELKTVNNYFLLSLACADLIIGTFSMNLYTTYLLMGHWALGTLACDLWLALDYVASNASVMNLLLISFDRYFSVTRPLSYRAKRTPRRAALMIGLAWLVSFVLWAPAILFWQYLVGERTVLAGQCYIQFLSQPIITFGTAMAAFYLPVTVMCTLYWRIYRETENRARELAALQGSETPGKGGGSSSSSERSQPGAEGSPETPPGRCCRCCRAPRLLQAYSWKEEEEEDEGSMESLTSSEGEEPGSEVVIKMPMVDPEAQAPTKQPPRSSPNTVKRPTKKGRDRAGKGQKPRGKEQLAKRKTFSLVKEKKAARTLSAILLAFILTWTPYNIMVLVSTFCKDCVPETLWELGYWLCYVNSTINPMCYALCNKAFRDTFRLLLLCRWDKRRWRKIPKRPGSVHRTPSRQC
protocol-description: Alphascreen Surefire phospho-ERK1/2 functional assay, M1
Format: cell-based
assay-context: CHO cells stably expressing human M1; Emax relative to ACh

compound	% Emax cf. ACh, M1
CCOC(=O)N1C2COCC1CC(N1CCC(C#N)(c3ccccn3)CC1)C2 (single isomer, unassigned) [Example 3-1 Isomer 2]	79%
CCOC(=O)N1C2COCC1CC(N1CCC3(CC1)CC3)C2 (single isomer, unassigned) [Example 5-1 Isomer 2]	66%
CCOC(=O)N1C2COCC1CC(N1CCC(c3cccc(OC)n3)CC1)C2 (single isomer, unassigned) [Example 2-1 Isomer 2]	40%

---

target-or-test-system: human muscarinic M4 receptor (Homo sapiens)
protocol-description: Alphascreen Surefire phospho-ERK1/2 functional assay, M4
Format: cell-based
assay-context: CHO cells stably expressing human M4; Emax relative to ACh
Procedure: ERK1/2 phosphorylation is a downstream consequence of both Gq/11 and Gi/o protein coupled receptor activation, making it highly suitable for the assessment of M1, M3 (Gq/11 coupled) and M2, M4 receptors (Gi/o coupled), rather than using different assay formats for different receptor subtypes. CHO cells stably expressing the human muscarinic M1, M2, M3 or M4 receptor were plated (25K/well) onto 96-well tissue culture plates in MEM-alpha+10% dialysed FBS. […]
The compounds listed here are annotated with their % Emax cf. ACh, M4.

compound	% Emax cf. ACh, M4, %
CCOC(=O)N1C2COCC1CC(N1CCC3(CC1)CNC(=O)C3)C2 (single isomer, unassigned) [Example 5-2 Isomer 2]	18
CCOC(=O)N1C2COCC1CC(N1CCC(n3cc(C)cn3)CC1)C2 (single isomer, unassigned) [Example 1-3 Isomer 2]	81
CCOC(=O)N1C2COCC1CC(N1CCC(c3cccc(OC)n3)CC1)C2 (single isomer, unassigned) [Example 2-1 Isomer 2]	20
CCOC(=O)N1C2COCC1CC(N1CCC3(CC1)C(=O)Nc1ccccc13)C2 (single isomer, unassigned) [Example 5-5 Isomer 2]	108
CCOC(=O)N1C2COCC1CC(N1CCC3(CC1)CNC(=O)O3)C2 (single isomer, unassigned) [Example 5-3 Isomer 2]	17
CC(=O)OCC[N+](C)(C)C [ACh]	110
CCOC(=O)N1C2COCC1CC(N1CCC(C#N)(c3ccccn3)CC1)C2 (single isomer, unassigned) [Example 3-1 Isomer 2]	78
